# System: spores of ATCC 630 strain
# Assay Overview: Inhibition of germination of C. difficile spores (MIC), strain ATCC 630
# Type: cell-based
# Recorded Conditions: Clostridioides difficile, ATCC630, 1 h; strain 630; sodium taurocholate as germinant, BHIS medium, 37° C., OD580 for 60 min; read-out: MIC (minimum concentration that completely inhibits spore germination)
Could you please report measured MIC for the items listed next?
Give bare numbers, in µM.

The cases that follow already have their MIC on record.
CC(C)[C@@H](NC(=O)C[C@@H](C)[C@H]1CC[C@H]2[C@@H]3C(=O)C[C@@H]4C[C@H](O)CC[C@]4(C)[C@H]3CC[C@]12C)c1ccc(Cl)s1	1
CC(C)[C@@H](NC(=O)C[C@@H](C)[C@H]1CC[C@H]2[C@@H]3[C@@H](O)C[C@@H]4CC(=O)CC[C@]4(C)[C@H]3CC[C@]12C)c1ccc(Cl)s1	32
CC[C@@H](NC(=O)C[C@@H](C)[C@H]1CC[C@H]2[C@@H]3[C@H](OC(C)=O)C[C@@H]4CC(=O)CC[C@]4(C)[C@H]3CC[C@]12C)c1ccc(Br)s1	0.5
C[C@H](CC(=O)NCC1CC1)[C@H]1CC[C@H]2[C@@H]3[C@H](O)C[C@@H]4C[C@H](O)CC[C@]4(C)[C@H]3CC[C@]12C	32
CC(C)C(NC(=O)C[C@@H](C)[C@H]1CC[C@H]2[C@@H]3[C@H](O)C[C@@H]4CC(=O)CC[C@]4(C)[C@H]3CC[C@]12C)c1ccc(Cl)s1 (stereo partly shown)	0.25

# ---- query molecule ----
Measured MIC of "CC[C@@H](NC(=O)C[C@@H](C)[C@H]1CC[C@H]2[C@@H]3C(=O)C[C@@H]4CC(=O)CC[C@]4(C)[C@H]3CC[C@]12C)c1ccc(C(=O)CCCCCCC(=O)O)s1" : 128

---

# Tested on: spores of ATCC 630 strain
# Assay Overview: Inhibition of germination of C. difficile spores (MIC), strain ATCC 630
# Type: cell-based
# Recorded Conditions: Clostridioides difficile, ATCC630, 1 h; strain 630; sodium taurocholate as germinant, BHIS medium, 37° C., OD580 for 60 min; read-out: MIC (minimum concentration that completely inhibits spore germination)
Measurement Name: MIC (µM)
Give bare numbers, in µM.

The cases that follow already have their MIC on record.
CC[C@@H](NC(=O)C[C@@H](C)[C@H]1CC[C@H]2[C@@H]3C(=O)C[C@@H]4CC(=O)CC[C@]4(C)[C@H]3CC[C@]12C)c1ccc(Br)s1 [Compound I-72]	0.5
CC(C)[C@@H](NC(=O)C[C@@H](C)[C@H]1CC[C@H]2[C@@H]3C(=O)C[C@@H]4CC(=O)CC[C@]4(C)[C@H]3CC[C@]12C)c1cccs1 [Compound I-66]	0.25

Give measured MIC for every item shown.
1. CC[C@@H](NC(=O)C[C@@H](C)[C@H]1CC[C@H]2[C@@H]3[C@H](O)[C@H](O)[C@@H]4C[C@H](O)CC[C@]4(C)[C@H]3CC[C@]12C)c1ccc(Cl)s1 [Compound I-117]
2. CC[C@@H](NC(=O)C[C@@H](C)[C@H]1CC[C@H]2[C@@H]3C(=O)C[C@@H]4CC(=O)CC[C@]4(C)[C@H]3CC[C@]12C)c1ccc(Cl)s1 [Compound I-70]

1: 4; 2: 0.25

---

# Tested on: spores of ATCC BBA1870 strain
# Assay Overview: Inhibition of germination of C. difficile spores (MIC), strain ATCC BBA1870
# Format: cell-based
# Recorded Conditions: Clostridioides difficile, ATCCBBA1870STRAIN, 1 h; strain 1870; sodium taurocholate as germinant, BHIS medium, 37° C., OD580 for 60 min; read-out: MIC (minimum concentration that completely inhibits spore germination)
Could you please report measured MIC for the items listed next?
Numbers only, in µM.

CC[C@@H](NC(=O)C[C@@H](C)[C@H]1CC[C@H]2[C@@H]3[C@H](OP(=O)(O)O)C[C@@H]4CC(=O)CC[C@]4(C)[C@H]3CC[C@]12C)c1ccc(Cl)s1	64
CC(C)[C@@H](NC(=O)C[C@@H](C)[C@H]1CC[C@H]2[C@@H]3C(=O)CC4=CC(=O)C=C[C@]4(C)[C@H]3CC[C@]12C)c1ccc(Cl)s1	1
C[C@H](CC(=O)NC(c1ccc(Cl)s1)C1CC1)[C@H]1CC[C@H]2[C@@H]3C(=O)C[C@@H]4CC(=O)CC[C@]4(C)[C@H]3CC[C@]12C (stereo partly shown)	0.5
CC[C@@H](NC(=O)C[C@@H](C)[C@H]1CC[C@H]2[C@@H]3[C@H](O)C[C@@H]4CC(=O)CC[C@]4(C)[C@H]3CC[C@]12C)c1ccc(Cl)s1	0.25
CC(C)[C@@H](NC(=O)C[C@@H](C)[C@H]1CC[C@H]2[C@@H]3[C@H](O)C[C@@H]4C[C@H](O)CC[C@]4(C)[C@H]3CC[C@]12C)c1ccc(Cl)s1	2

Give measured MIC for every item shown.
1. C[C@H](CC(=O)NCc1ccco1)[C@H]1CC[C@H]2[C@@H]3[C@@H](O)C[C@@H]4C[C@H](O)CC[C@]4(C)[C@H]3CC[C@]12C
2. CC(NC(=O)C[C@@H](C)[C@H]1CC[C@H]2[C@@H]3[C@H](O)C[C@@H]4C[C@H](O)CC[C@]4(C)[C@H]3C[C@H](O)[C@]12C)c1ccccc1 (stereo partly shown)
3. CC(C)[C@@H](NC(=O)C[C@@H](C)[C@H]1CC[C@H]2[C@@H]3[C@@H](O)C[C@@H]4CC(=O)CC[C@]4(C)[C@H]3CC[C@]12C)c1ccc(Cl)s1
4. CC(C)C(NC(=O)C[C@@H](C)[C@H]1CC[C@H]2[C@@H]3C(=O)C[C@@H]4CC(=O)CC[C@]4(C)[C@H]3CC[C@]12C)c1ccc(Cl)s1 (stereo partly shown)
5. CC[C@H](NC(=O)C[C@@H](C)[C@H]1CC[C@H]2[C@@H]3C(=O)C[C@@H]4CC(=O)CC[C@]4(C)[C@H]3CC[C@]12C)c1cccs1
6. CC[C@@H](NC(=O)C[C@@H](C)[C@H]1CC[C@H]2[C@@H]3[C@H](OC(C)=O)CC4=CC(=O)C=C[C@]4(C)[C@H]3CC[C@]12C)c1ccc(Br)s1

[64, 64, 32, 0.5, 8, 0.5]

Give measured MIC for every item shown.
1. CCC(NC(=O)C[C@@H](C)[C@H]1CC[C@H]2[C@@H]3[C@H](O)C[C@@H]4CC(=O)CC[C@]4(C)[C@H]3CC[C@]12C)c1ccc(Br)s1 (stereo partly shown)
2. CC[C@@H](NC(=O)C[C@@H](C)[C@H]1CC[C@H]2[C@@H]3[C@H](O)CC4=CC(=O)C=C[C@]4(C)[C@H]3CC[C@]12C)c1ccc(Br)s1
3. CC[C@@H](NC(=O)C[C@@H](C)[C@H]1CC[C@H]2[C@@H]3[C@H](O)[C@H](O)[C@@H]4CC(=O)CC[C@]4(C)[C@H]3CC[C@]12C)c1cccs1
4. CC(C)C(NC(=O)C[C@@H](C)[C@H]1CC[C@H]2[C@@H]3[C@H](OS(=O)(=O)O)C[C@@H]4CC(=O)CC[C@]4(C)[C@H]3CC[C@]12C)c1ccc(Br)s1 (stereo partly shown)
5. CC(C)[C@@H](NC(=O)C[C@@H](C)[C@H]1CC[C@H]2[C@@H]3[C@H](O)C[C@@H]4CC(=O)CC[C@]4(C)[C@H]3CC[C@]12C)c1ccc(Cl)s1

1. 0.5
2. 0.5
3. 128
4. 1
5. 0.125

---

Could you please report measured MIC for the items listed next?
# Test system: spores of ATCC 630 strain
# Assay Overview: Inhibition of germination of C. difficile spores (MIC), strain ATCC 630
# Format: cell-based
# Recorded Conditions: Clostridioides difficile, ATCC630, 1 h; strain 630; sodium taurocholate as germinant, BHIS medium, 37° C., OD580 for 60 min; read-out: MIC (minimum concentration that completely inhibits spore germination)
Answers are plain numbers, in µM.

CC[C@@H](NC(=O)C[C@@H](C)[C@H]1CC[C@H]2[C@@H]3[C@H](O)C[C@@H]4C[C@H](O)CC[C@]4(C)[C@H]3CC[C@]12C)c1ccc(Br)s1	1

Measured MIC of CCC(NC(=O)C[C@@H](C)[C@H]1CC[C@H]2[C@@H]3[C@H](O)C[C@@H]4CC(=O)CC[C@]4(C)[C@H]3CC[C@]12C)c1cccs1 (stereo partly drawn) : 1

---

# Tested on: spores of ATCC 630 strain
# Assay Overview: Inhibition of germination of C. difficile spores (MIC), strain ATCC 630
# Assay type: cell-based
# Recorded Conditions: Clostridioides difficile, ATCC630, 1 h; strain 630; sodium taurocholate as germinant, BHIS medium, 37° C., OD580 for 60 min; read-out: MIC (minimum concentration that completely inhibits spore germination)
# Procedure: According to a method disclosed in “The Journal of Infectious Diseases. 2013; 207: 1498-504”, spores of ATCC BBA1870, ATCC 43255 and ATCC 630 strains were obtained by culture and purification, and stored at 4° C. Spore preparation: the C. difficile spores stored at 4° C. were heat-activated for 30 min at 65° C., centrifuged at 9,400 g for 2 min, and washed three times to remove any self-germinating spores. […]
Measurement Name: MIC
Show the value, then the unit it is measured in.

The cases that follow already have their MIC on record.
CC(C)[C@@H](NC(=O)C[C@@H](C)[C@H]1CC[C@H]2[C@@H]3[C@H](O)CC4=CC(=O)CC[C@]4(C)[C@H]3CC[C@]12C)c1ccc(Br)s1 [Compound I-156-2]	0.25 µM
Cc1ccsc1C(C)NC(=O)C[C@@H](C)[C@H]1CC[C@H]2[C@@H]3C(=O)C[C@@H]4CC(=O)CC[C@]4(C)[C@H]3CC[C@]12C (stereo partly drawn) [Compound I-31]	8 µM
CCC(NC(=O)C[C@@H](C)[C@H]1CC[C@H]2[C@@H]3[C@H](O)C[C@@H]4CC(=O)CC[C@]4(C)[C@H]3CC[C@]12C)c1ccc(Br)s1 (stereo partly drawn) [Compound I-89]	0.5 µM
C[C@H](CC(=O)NC(c1cccs1)C1CCC1)[C@H]1CC[C@H]2[C@@H]3C(=O)C[C@@H]4CC(=O)CC[C@]4(C)[C@H]3CC[C@]12C (stereo partly drawn) [Compound I-57]	16 µM

Give measured MIC for every item shown.
1. CC(C)[C@@H](NC(=O)C[C@@H](C)[C@H]1CC[C@H]2[C@@H]3[C@H](O)C[C@@H]4CC(=O)CC[C@]4(C)[C@H]3CC[C@]12C)c1ccc(Cl)s1 [Compound I-97]
2. CC[C@@H](NC(=O)C[C@@H](C)[C@H]1CC[C@H]2[C@@H]3[C@H](O)[C@H](O)[C@@H]4CC(=O)CC[C@]4(C)[C@H]3CC[C@]12C)c1ccc(Cl)s1 [Compound I-123]
3. CC[C@@H](NC(=O)C[C@@H](C)[C@H]1CC[C@H]2[C@@H]3[C@H](O)C[C@@H]4C[C@@H](O)CC[C@]4(C)[C@H]3CC[C@]12C)c1ccc(Br)s1 [Compound I-143]
4. CCCCC(NC(=O)C[C@@H](C)[C@H]1CC[C@H]2[C@@H]3C(=O)C[C@@H]4CC(=O)CC[C@]4(C)[C@H]3CC[C@]12C)c1cccs1 (stereo partly drawn) [Compound I-42]
5. CCC(NC(=O)C[C@@H](C)[C@H]1CC[C@H]2[C@@H]3C(=O)C[C@@H]4CC(=O)CC[C@]4(C)[C@H]3CC[C@]12C)c1cccs1 (stereo partly drawn) [Compound I-35]

1: 0.125 µM; 2: 64 µM; 3: 4 µM; 4: 1 µM; 5: 0.5 µM

Give measured MIC for every item shown.
1. C[C@H](CC(=O)NC(c1ccc(Cl)s1)C1CC1)[C@H]1CC[C@H]2[C@@H]3C(=O)C[C@@H]4CC(=O)CC[C@]4(C)[C@H]3CC[C@]12C (stereo partly drawn) [Compound I-51]
2. CC(C)[C@@H](NC(=O)C[C@@H](C)[C@H]1CC[C@H]2[C@@H]3C(=O)CC4=CC(=O)CC[C@]4(C)[C@H]3CC[C@]12C)c1ccc(Br)s1 [Compound I-152]
3. CC(C)C(NC(=O)C[C@@H](C)[C@H]1CC[C@H]2[C@@H]3C[C@H](O)[C@@H]4CC(=O)CC[C@]4(C)[C@H]3CC[C@]12C)c1ccc(Br)s1 (stereo partly drawn) [Compound I-130]

1: 0.5 µM; 2: 0.5 µM; 3: 4 µM
